This collection of values is drawn from patent US11547697B2.

Field: pIC50. Provide a value for each of the compounds that follow.
# ASSAYED TARGET: p110α/p85α (Homo sapiens (Human), UniProt P42336)
# Sequence (P42336 whole entry): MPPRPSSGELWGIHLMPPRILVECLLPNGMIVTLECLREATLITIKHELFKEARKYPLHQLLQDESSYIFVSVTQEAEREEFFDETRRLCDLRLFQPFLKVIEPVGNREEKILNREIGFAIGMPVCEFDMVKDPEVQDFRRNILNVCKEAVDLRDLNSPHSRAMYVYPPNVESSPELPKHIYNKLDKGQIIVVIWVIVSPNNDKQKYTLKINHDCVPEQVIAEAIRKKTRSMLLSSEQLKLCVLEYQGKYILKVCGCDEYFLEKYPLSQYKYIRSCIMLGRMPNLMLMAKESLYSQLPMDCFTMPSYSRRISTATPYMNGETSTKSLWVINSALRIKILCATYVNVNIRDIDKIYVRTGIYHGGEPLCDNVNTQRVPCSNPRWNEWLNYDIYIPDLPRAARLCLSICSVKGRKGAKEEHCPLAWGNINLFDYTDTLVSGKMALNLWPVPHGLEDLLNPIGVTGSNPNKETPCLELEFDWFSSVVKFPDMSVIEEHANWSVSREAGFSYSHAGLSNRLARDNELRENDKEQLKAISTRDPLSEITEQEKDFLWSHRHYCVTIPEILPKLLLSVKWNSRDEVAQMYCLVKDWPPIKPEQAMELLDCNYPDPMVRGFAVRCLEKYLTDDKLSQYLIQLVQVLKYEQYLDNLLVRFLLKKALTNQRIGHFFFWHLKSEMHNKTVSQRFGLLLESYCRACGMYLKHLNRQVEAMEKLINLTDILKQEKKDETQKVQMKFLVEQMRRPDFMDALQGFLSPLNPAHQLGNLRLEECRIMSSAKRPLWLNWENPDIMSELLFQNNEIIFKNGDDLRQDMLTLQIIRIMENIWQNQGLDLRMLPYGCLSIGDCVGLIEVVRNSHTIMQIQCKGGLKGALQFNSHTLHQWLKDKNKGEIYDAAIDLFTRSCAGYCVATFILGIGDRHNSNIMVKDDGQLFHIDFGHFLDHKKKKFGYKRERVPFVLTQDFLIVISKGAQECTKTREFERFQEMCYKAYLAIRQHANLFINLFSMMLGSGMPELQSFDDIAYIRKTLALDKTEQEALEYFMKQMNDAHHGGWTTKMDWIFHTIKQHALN
# Sequence (P27986 whole entry partner): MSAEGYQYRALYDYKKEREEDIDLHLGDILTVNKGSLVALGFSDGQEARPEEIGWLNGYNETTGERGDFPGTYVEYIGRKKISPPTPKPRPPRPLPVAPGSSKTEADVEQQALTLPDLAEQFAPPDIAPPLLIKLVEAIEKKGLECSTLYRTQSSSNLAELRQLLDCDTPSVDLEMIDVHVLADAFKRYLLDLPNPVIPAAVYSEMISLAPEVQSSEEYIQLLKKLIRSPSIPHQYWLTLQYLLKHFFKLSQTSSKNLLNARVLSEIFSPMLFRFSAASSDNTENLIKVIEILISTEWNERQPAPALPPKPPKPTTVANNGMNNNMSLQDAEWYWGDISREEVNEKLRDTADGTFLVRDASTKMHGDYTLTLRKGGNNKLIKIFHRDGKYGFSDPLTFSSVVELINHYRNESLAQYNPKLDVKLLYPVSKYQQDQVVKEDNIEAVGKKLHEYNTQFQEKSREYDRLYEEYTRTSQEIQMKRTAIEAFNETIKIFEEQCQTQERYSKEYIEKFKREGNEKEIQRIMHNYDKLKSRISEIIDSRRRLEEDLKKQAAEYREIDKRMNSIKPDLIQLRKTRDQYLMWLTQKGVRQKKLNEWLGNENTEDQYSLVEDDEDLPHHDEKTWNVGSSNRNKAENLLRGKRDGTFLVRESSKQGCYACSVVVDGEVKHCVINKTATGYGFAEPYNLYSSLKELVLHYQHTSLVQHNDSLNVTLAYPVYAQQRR
# ASSAY OVERVIEW: PI 3-Kinase (human) HTRF assay, p110α/p85α
# Format: biochemical
# APPLIED CONDITIONS: read-out: PI3K α IC50
pIC50: −log10 of the molar value.

So what's the measured pIC50 for this one? Nc1nc2cc(-c3c[nH]c4nccc(-c5ccncc5)c34)ccc2o1
> 5.00

Ok, now Nc1nc2cc(-c3ccc4ncc(C(=O)N5CCCC5)n4c3)ccc2o1
> 7.00

Ok, now CC(N)C(=O)N1CCN(c2cnc3ccc(-c4ccc5oc(N)nc5c4)cc3n2)CC1 (stereo not shown)
> 7.00

Ok, now Nc1nc2cc(-c3ccc4ncc(N5CCC(N6CCOCC6)CC5)nc4c3)ccc2o1
> 7.00
